These entries and their values trace back to paper PMC6992764.

- Tgt: FROUNT-CCR2 interaction (Homo sapiens, UniProt Q9BW27)
- Construct: GST-fused FROUNT (FNT-C)
- Sequence (Q9BW27 500-656 limits assumed): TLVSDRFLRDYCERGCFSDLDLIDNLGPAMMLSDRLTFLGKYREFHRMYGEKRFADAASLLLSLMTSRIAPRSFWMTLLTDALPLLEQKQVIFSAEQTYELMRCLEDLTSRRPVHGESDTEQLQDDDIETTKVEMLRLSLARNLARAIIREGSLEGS
- Procedure summary: HTRF FROUNT-CCR2 interaction assay
- Condition context: HTRF titration assay
Measured quantity: IC50 (nM)
Return type: number; implicit unit nM.

# input What value of IC50 has been reported for the following molecule? CCN(CC)C(=S)SSC(=S)N(CC)CC [DSF, disulfiram]
# output 42

* * *

- Tgt: p53-MDM2 interaction (Homo sapiens)
- Sequence (Q00987 whole entry): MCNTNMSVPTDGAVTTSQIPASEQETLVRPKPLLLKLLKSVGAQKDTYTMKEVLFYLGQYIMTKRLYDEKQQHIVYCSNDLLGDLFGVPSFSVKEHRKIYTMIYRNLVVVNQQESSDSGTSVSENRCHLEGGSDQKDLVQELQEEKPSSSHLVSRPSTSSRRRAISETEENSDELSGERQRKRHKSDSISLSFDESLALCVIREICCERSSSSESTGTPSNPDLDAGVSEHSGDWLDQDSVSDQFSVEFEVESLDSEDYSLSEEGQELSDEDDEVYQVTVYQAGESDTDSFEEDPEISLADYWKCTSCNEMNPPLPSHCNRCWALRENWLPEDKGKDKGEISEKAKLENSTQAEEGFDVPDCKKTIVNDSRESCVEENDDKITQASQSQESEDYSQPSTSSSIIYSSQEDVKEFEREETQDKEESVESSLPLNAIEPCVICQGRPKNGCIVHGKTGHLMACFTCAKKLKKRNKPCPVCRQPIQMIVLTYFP
- Procedure summary: HTRF p53-MDM2 interaction counter assay
- Condition context: HTRF titration assay
pIC50: −log10 of the molar value.
Measured quantity: pIC50

# input Which measured pIC50 belongs to CCN(CC)C(=S)SSC(=S)N(CC)CC , tested on p53-MDM2 interaction (Homo sapiens)?
# output < 6.00
